- protocol-description: yeast display, Sf9 membrane polyspecificity reagent, FACS + sequencing; frameworks hold sequencing errors
reported-metric: polyreactivity (PSR sort gate)

- QVQLVESGGGLVQAGGSLRLSCAASGSTFDFNAMGWYRQAPGKERELVAAITSGGGSTYYADSLKGRFTISRDNAKNTVYLQMNSLKPEDTAVYYCAADDIVLRYDYWGQGTQVTVSS: low polyreactivity
- QVKLVESGGGLVQAGGSLSLSCDASGFISVQNALGCYRQAPGKERELVASITSDGSTYYADSVKGRFTISRDNAKNTVYLQMTSLKPEDTAVYDCAKVNNSYSGFTTTLEYWGQGTQVTVSS: low polyreactivity
- QVQLVESGGGLVQAGGSLRLSCAASGIFRGYAMGWYRQAPGKERELVAAISWGGGSTYYADSVKGRFTISRDNAKNTVYLQMNSLKPEDTAVYYCIAADFGWDYAYYYWGQGTQVTVSS: low polyreactivity
- QVQLVESGGGLVQAGGSLRLSCAASGRIFSVYDMGWYRQAPGKERELVAAISWSGGTTYYADSVKGRFTISRDNAKNTVYLQMNSLKPEDTAVYYCAARSRSRYDYWGQGTQVTVSS: high polyreactivity
- QVQLQESGGGLVQAGGSLRLSCAASGYISLAQTIGWYRQAQGKEREFVASIALGSSTYYTDSVKGSFTISRDNAKTTVYLQMNSLKPEDTAVYYCAARVGASYAHDYWGQGTQVTLSS: low polyreactivity

Record QVQLVESGGGLVQAGGSLRLSSAASGSIFRSYTMGWYRQAPGKERELVAAISGRAGSTYYADAVKGRVTISRDNAKNTVYLQMNSLKPEDTAVYYCAVKLGGRSQSYYWGQGTQVTVSS , field polyreactivity (PSR sort gate): high polyreactivity

Record QVQLVESGGGLVQAGGSLRLSCAASGSIFCSYAMAWYRQAPGKERELVASITRSGGSTYYADSVKGRFTISRDNAKNTVYLQMNSLKPEDTAVYYCNARRTTRWGSSKYEYDYWGQGTQVTVSS , field polyreactivity (PSR sort gate): high polyreactivity

Record QVQLVESGGGLVQAGGSLRLSCAASGRTFIPYAMGWYRQAPGKERELVAAIRTTGGSTNYADSVKGRFTISRDNAKNTVYLQMNSLKPEDTAVYYCAATSRQRPYDYWGQGTQVTVSS , field polyreactivity (PSR sort gate): high polyreactivity

Record QVQLVESGGGLVQAGGSLRLSCAASGRTFVQYVMGWYRQAPGKERELVARISSGGSTFYADSVKGRFTISRDNAKNTVYLQMNSLKPEDTAVYYCAAQWTRYRRRPMDYWGQGTQVTVSS , field polyreactivity (PSR sort gate): high polyreactivity

Record QVQLVESGGGLVQAGGSLRLSCAASGRTFVYYAMGWYRQAPGKERELVATISTTGGRTYYADSVKGRFTISRDNAKNTVYLQMNSLKPEDTAVYYCAADLYGAYGYWGQGTQVTVSS , field polyreactivity (PSR sort gate): low polyreactivity

Record QVQLVESGGGLVQAGGSLRLSCAASGRTFRYYAMGWYRQEPGKERELVAVITSGASTYYADSVKGRFTISRDNAKNTVYLQMNCLKPEDTAVYYCNARYSWKYDSWGQGTQVTVSS , field polyreactivity (PSR sort gate): high polyreactivity

Record QVQLVESGGGLVQAGGSLRLSCAASGFTFYRYALGWYRQAPGKERELVAAISQRGGTTYYADSVKGRFTISRDNAKNTVYLQMNSLKPEDTAVYYCAKDRYYYPGNYWGQGTQVTVSS , field polyreactivity (PSR sort gate): high polyreactivity

Record QVQLVESGGGLVQAGGSLRLSCAASGFTFDSNAMGWYRQAPGKERELVAAISTGGSTYYADSVKGRFTISRDNAKNTVYLQMNSLKPEDTAVYYCARDPPYPDTWYGYWGQGTQVTVSS , field polyreactivity (PSR sort gate): low polyreactivity
